tested.on: T1, UPAR-His recombinant protein (UniProt Q03405 23-303)
T1 construct: range 23-303; Expressed in 293 cells, purified on Ni-NTA; Biotinylated in the uPA ELISA; also called UPAR-His antigen; biotinUPAR-His; not shown: C-terminal His tag
test.details: phage ELISA, plate coated with UPAR-His, HRP-anti-M13
assay.readout: S/N ratio

phage mono clone 3-H02 (VHH, the phage coat fusion part is not described) VHH: QLTLVESGGGLVQPGGSLRLSCAASEFTLDYYAIGWFRQAPGKEREGVSCISSSDGSTYYADSVKGRFTISRDNAKNTVYLQMNSLKPEDTAVYYCAIGGLLLLRLWERGNYEFDYWGQGTQVTVSS	> 5

**Query** Reported S/N ratio for phage mono clone 1-G1 (VHH, the phage coat fusion part is not described) VHH: QVQLVESGGGLVQPGGSLRLSCAASGNSLRRYAIGWFRQAPGKEREGVVCISTVGGSSYYVDSVKGRFTISEDNVKNTAYLQMNSLEPEDTAVYYCAAANRLYCPAYGSAGYDYWGQGTQVTVSS : what is it?
**Result** > 5

// provenance: patent US20250074997A1
